B1: CPEB3 Ribozyme (parent)
chain: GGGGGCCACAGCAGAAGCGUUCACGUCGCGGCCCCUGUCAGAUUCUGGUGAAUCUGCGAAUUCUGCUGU

Variants of: B1
Assay: self-cleavage, relative activity (ratio to wild type); higher = more cleavage; co-transcriptional
Param threshold (0.8) applies to self-cleavage; output 1 when value >= threshold, 0 when value < threshold.

Mutation string: G19U A51C
Cat: 0
//
Mutation string: G50U A60G
Cat: 1
//
Mutation string: C24G C66U
Cat: 0

(Q) API: above_or_equal(metric=self-cleavage, cutoff=0.8) for item A10U G58A
(A) 1

(Q) API: above_or_equal(metric=self-cleavage, cutoff=0.8) for item C24U C35A
(A) 0

(Q) API: above_or_equal(metric=self-cleavage, cutoff=0.8) for item C22A A60G
(A) 0

(Q) API: above_or_equal(metric=self-cleavage, cutoff=0.8) for item G25C A51U
(A) 0

(Q) API: above_or_equal(metric=self-cleavage, cutoff=0.8) for item U20G A51U
(A) 0
